Overview of reported LOAEL MMP (mitochondrial membrane potential) across a group of compounds:
Test system: U87 MG/PER2-dLuc cells
Assay: multiparametric high-content screening (HCS) assay
Assay type: cell-based, human
Conditions: 24-h treatment, TMRM
Marks after values point to notes of the source that are not given here.
readout.type: LOAEL MMP (mitochondrial membrane potential)

compound: O=C(O)c1cn(C2CC2)c2cc(N3CCNCC3)c(F)cc2c1=O [CPX, ciprofloxacin]
observed.result: 0.94** µM

compound: CCOP(=S)(OCC)Oc1nc(Cl)c(Cl)cc1Cl [CPF, chlorpyrifos]
observed.result: 1.41** µM

compound: Clc1ccc(C(c2ccc(Cl)cc2)C(Cl)(Cl)Cl)cc1 [DDT, 4,4′-dichlorodiphenyltrichloroethane]
observed.result: 15 µM

compound: C[n+]1ccc(-c2ccccc2)cc1 [MPP +, 1-methyl-4-phenylpyridinium]
observed.result: 40* µM

compound: [CH3][Hg][Cl] [MHg, methylmercury (II) chloride]
observed.result: 0.5* µM

====

Tested on: U87 MG/PER2-dLuc cells
Assay: multiparametric high-content screening (HCS) assay
Assay type: cell-based, human
Details: 24 h of treatment
Procedure: A multiparametric analysis of compound toxicity at the level of individual cells was conducted using the HCS method established by Tolosa et al. ([2012]) to assess the liver toxicity of chemicals and drugs. […] After incubation for 1 h, the cells were imaged using an IN Cell Analyzer 6000 (GE Healthcare Life Sciences) and analyzed using IN Cell Miner HCM. The data were analyzed with IN Cell Analyzer 6000 Analysis Software. Nuclear morphological alterations were assessed based on the Hoechst staining. […]
Could you please mark rule met for values of lowest concentration with decrease in MMP below 1 µM and rule not met for values at or above it?

molecule: O=C(O)c1cn(C2CC2)c2cc(N3CCNCC3)c(F)cc2c1=O [CPX, ciprofloxacin]
group: rule met
//
molecule: C[n+]1ccc(-c2ccccc2)cc1 [MPP +, 1-methyl-4-phenylpyridinium]
group: rule not met
//
molecule: CCOP(=S)(OCC)Oc1nc(Cl)c(Cl)cc1Cl [CPF, chlorpyrifos]
group: rule not met
//
molecule: Clc1ccc(C(c2ccc(Cl)cc2)C(Cl)(Cl)Cl)cc1 [DDT, 4,4′-dichlorodiphenyltrichloroethane]
group: rule not met
//
molecule: [CH3][Hg][Cl] [MHg, methylmercury (II) chloride]
group: rule met

====

Tested on: U87 MG/PER2-dLuc cells
Assay: in vitro cellular bioluminescence (PER2-dLuc circadian reporter) assay
Assay type: cell-based, human
Settings: U87 MG/PER2-dLuc cells, bioluminescence monitored 5 days
# LOAEL Circadian disruption per record follows

molecule.smiles: Clc1ccc(C(c2ccc(Cl)cc2)C(Cl)(Cl)Cl)cc1
LOAEL Circadian disruption [µM]: 10
--
molecule.smiles: CCOP(=S)(OCC)Oc1nc(Cl)c(Cl)cc1Cl
LOAEL Circadian disruption [µM]: 1.5
--
molecule.smiles: C[n+]1ccc(-c2ccccc2)cc1
LOAEL Circadian disruption [µM]: 30
--
molecule.smiles: O=C(O)c1cn(C2CC2)c2cc(N3CCNCC3)c(F)cc2c1=O
LOAEL Circadian disruption [µM]: 40
